For each record, write down the corresponding MIC AG039 MRSA AAC(6′)-I ANT(4′)-I.
- System: MRSA
- PROTOCOL_DETAILS: MIC by broth microdilution, MRSA isolates
- Type: cell-based
- EXPERIMENTAL_CONDITIONS: clinical isolate AG039, AAC(6′)-I ANT(4′)-I

Qu. Reported MIC AG039 MRSA AAC(6′)-I ANT(4′)-I, compound NCC1OC(OC2C(CNC=O)OC(OC3C(O)C(N)CC(N)C3OC3OC(CO)C(O)C(O)C3N)C2O)C(N)C(O)C1O (stereo not drawn) : ____
Ans. >128 mg/L

Qu. Reported MIC AG039 MRSA AAC(6′)-I ANT(4′)-I, compound CCCC(O)C1OC(OC2C(N)CC(N)C(O)C2OC2OC(CO)C(OC3OC(CN)C(O)C(O)C3N)C2O)C(N)C(O)C1O (stereo not drawn) [DC143] : ____
Ans. >64 mg/L

Qu. Reported MIC AG039 MRSA AAC(6′)-I ANT(4′)-I, compound NC[C@H]1O[C@H](O[C@H]2[C@H](O[C@@H]3O[C@H](CN)[C@@H](O)[C@H]3O)[C@@H](O)[C@H](N)C[C@@H]2N)[C@H](N)[C@@H](O)[C@@H]1O : ____
Ans. >64 mg/L

* * *

For each record, write down the corresponding MIC.
- System: E coli wild type
- PROTOCOL_DETAILS: MIC by broth microdilution, wild type E coli
- Assay type: cell-based
- EXPERIMENTAL_CONDITIONS: Escherichia coli, ATCC25922, strain AG212 E. coli (ATCC25922); read-out: MIC AG212 E. coli
Where a name gives a salt, the structure may show the parent alone.
Reply numerically in µg/mL, unit not repeated.

Qu. Reported MIC, compound CCCNC1C(OC2C(N)CC(N)C(O)C2OC2OC(CO)C(OC3OC(CN)C(O)C(O)C3N)C2O)OC(CO)C(O)C1O (stereo not shown) [Compound 128, 2′-N-Propyl-paromomycin acetate salt] : ____
Ans. 4

Qu. Reported MIC, compound NCC1OC(OC2C(CO)OC(OC3C(O)C(N)CC(N)C3OC3OC(CN)C(O)C(O)C3NC=O)C2O)C(N)C(O)C1O (stereo not shown) : ____
Ans. 4

Qu. Reported MIC, compound NCC1OC(OC2C(N)CC(N)C(O)C2OC2OC(CO)C(OC3OC(CN)C(O)C(O)C3N)C2O)CC(O)C1O (stereo not shown) [Compound 173, 2′-Deamino-neomycin acetate salt] : ____
Ans. 1

* * *

- Tested on: E coli wild type
- PROTOCOL_DETAILS: MIC by broth microdilution, wild type E coli
- Format: cell-based
- EXPERIMENTAL_CONDITIONS: clinical isolate AG001, WT
METRIC: MIC AG001 E. coli WT

Qu. Reported MIC AG001 E. coli WT, compound CC1CC(N)C2OC(OC3C(N)CC(N)C(O)C3OC3OC(CO)C(OC4OC(CN)C(O)C(O)C4N)C3O)C(N)C(O)C2O1 (stereo not shown) : ____
Ans. >128 µg/mL

Qu. Reported MIC AG001 E. coli WT, compound NC[C@H]1O[C@H](O[C@H]2[C@H](O[C@@H]3O[C@H](CO)[C@@H](O)[C@H]3O)[C@@H](O)[C@H](N)C[C@@H]2N)[C@H](N)C[C@@H]1O : ____
Ans. 8 to 16 µg/mL

Qu. Reported MIC AG001 E. coli WT, compound CC(=O)N[C@H]1[C@@H](O[C@H]2[C@H](O[C@@H]3O[C@H](CO)[C@@H](O[C@H]4O[C@@H](CN)[C@@H](O)[C@H](O)[C@H]4N)[C@H]3O)[C@@H](O)[C@H](N)C[C@@H]2N)O[C@H](CN)[C@@H](O)[C@@H]1O : ____
Ans. >32 µg/mL

Qu. Reported MIC AG001 E. coli WT, compound NC[C@@H]1O[C@H](O[C@H]2[C@@H](O)[C@H](O[C@@H]3[C@@H](O)[C@H](N)C[C@H](N)[C@H]3O[C@H]3O[C@H](CN)[C@@H](O)[C@H](O)[C@H]3O)O[C@@H]2CO)[C@H](N)[C@@H](O)[C@@H]1O : ____
Ans. 2 to 4 µg/mL

Qu. Reported MIC AG001 E. coli WT, compound NC[C@H]1O[C@H](O[C@H]2[C@H](O[C@@H]3O[C@H](CN)[C@@H](O)[C@H]3O)[C@@H](O)[C@H](N)C[C@@H]2N)[C@H](N)[C@@H](O)[C@@H]1O : ____
Ans. 32 to 64 µg/mL

Qu. Reported MIC AG001 E. coli WT, compound CCNC1C(OC2C(N)CC(N)C(O)C2OC2OC(CO)C(OC3OC(CN)C(O)C(O)C3N)C2O)OC(CN)C(O)C1O (stereo not shown) : ____
Ans. 1 to 2 µg/mL

Qu. Reported MIC AG001 E. coli WT, compound CC(O)C1OC(OC2C(N)CC(N)C(O)C2OC2OC(CO)C(OC3OC(CN)C(O)C(O)C3N)C2O)C(N)C(O)C1O (stereo not shown) : ____
Ans. 4 to 8 µg/mL

* * *

For each record, write down the corresponding MIC.
- System: E coli wild type
- PROTOCOL_DETAILS: MIC by broth microdilution, wild type E coli
- Format: cell-based
- EXPERIMENTAL_CONDITIONS: Escherichia coli, clinical isolate AG001; Table 1 (Example 3); read-out: MIC E coli AG001
Structures can show the parent of a compound that is named as a salt.

Qu. Reported MIC, molecule NC[C@@H]1O[C@H](O[C@H]2[C@@H](O)[C@H](O[C@@H]3[C@@H](O)[C@H](N)C[C@H](N)[C@H]3O[C@H]3O[C@H](CO)[C@@H](O)[C@H](O)[C@H]3N)O[C@@H]2CO)[C@H](N)[C@@H](O)[C@@H]1O [paromomycin, reference compound] : ____
Ans. 16 to 32 µg/mL

Qu. Reported MIC, molecule CCNC1C(OC2C(N)CC(N)C(O)C2OC2OC(CO)C(OC3OC(CN)C(O)C(O)C3N)C2O)OC(CN)C(O)C1O (stereo not shown) [Compound 172, 2′-N-Ethyl-neomycin acetate salt] : ____
Ans. 1 to 2 µg/mL

Qu. Reported MIC, molecule NCC1OC(OC2C(CO)OC(OC3C(O)C(N)CC(N)C3OC3OC(CN)C(O)C(O)C3O)C2O)C(N)C(O)C1O (stereo not shown) [Compound 119] : ____
Ans. 2 to 4 µg/mL

Qu. Reported MIC, molecule NCC1OC(OC2C(CO)OC(OC3C(O)C(N)CC(N)C3OC3OC(CN)C(O)C(O)C3NC=O)C2O)C(N)C(O)C1O (stereo not shown) [Compound 182, 2′-N-Formamido-neomycin] : ____
Ans. 4 to 8 µg/mL

* * *

- Tested on: MRSA
- PROTOCOL_DETAILS: MIC by broth microdilution, MRSA isolates
- Format: cell-based
- EXPERIMENTAL_CONDITIONS: clinical isolate AG042, AAC(6′)-I ANT(4′)-I APH(2′)
METRIC: MIC AG042 MRSA AAC(6′)-I ANT(4′)-I APH(2′)

Qu. Reported MIC AG042 MRSA AAC(6′)-I ANT(4′)-I APH(2′), compound NCC1OC(OC2C(CNC=O)OC(OC3C(O)C(N)CC(N)C3OC3OC(CO)C(O)C(O)C3N)C2O)C(N)C(O)C1O (stereo not drawn) [DC137] : ____
Ans. >128 µg/mL

Qu. Reported MIC AG042 MRSA AAC(6′)-I ANT(4′)-I APH(2′), compound CC(N)C1OC(OC2C(N)CC(N)C(O)C2OC2OC(CO)C(OC3OC(CN)C(O)C(O)C3N)C2O)C(N)C(O)C1O (stereo not drawn) [DC166] : ____
Ans. >128 µg/mL

Qu. Reported MIC AG042 MRSA AAC(6′)-I ANT(4′)-I APH(2′), compound CC(=O)N[C@H]1[C@@H](O[C@H]2[C@H](O[C@@H]3O[C@H](CO)[C@@H](O[C@H]4O[C@@H](CN)[C@@H](O)[C@H](O)[C@H]4N)[C@H]3O)[C@@H](O)[C@H](N)C[C@@H]2N)O[C@H](CN)[C@@H](O)[C@@H]1O [DC-183] : ____
Ans. >32 µg/mL

* * *

For each record, write down the corresponding MIC.
- Test system: E coli wild type
- PROTOCOL_DETAILS: MIC by broth microdilution, wild type E coli
- Assay type: cell-based
- EXPERIMENTAL_CONDITIONS: Escherichia coli, ATCC25922, strain AG212 E. coli (ATCC25922); read-out: MIC AG212 E. coli

Qu. Reported MIC, compound NC[C@@H]1O[C@H](O[C@@H]2C(O)[C@H](O[C@@H]3C(O)[C@H](N)CC(N)[C@H]3O[C@H]3OC4C(O)CCO[C@H]4[C@H](O)C3N)O[C@@H]2CO)C(N)C(O)[C@@H]1O (stereo partly shown) : ____
Ans. 32 to 64 µg/mL

Qu. Reported MIC, compound NC[C@@H]1O[C@H](O[C@@H]2C(O)[C@H](O[C@@H]3C(O)[C@H](N)CC(N)[C@H]3O[C@H]3OC4C(O)CCCO[C@H]4[C@H](O)C3N)O[C@@H]2CO)C(N)C(O)[C@@H]1O (stereo partly shown) : ____
Ans. > 32 µg/mL

Qu. Reported MIC, compound NCC1O[C@H](O[C@@H]2C(O)[C@H](O[C@@H]3C(O)[C@H](N)CC(N)[C@H]3O[C@H]3OC(CO)[C@@H](CCO)C(O)[C@@H]3N)O[C@@H]2CO)C(N)C(O)[C@@H]1O (stereo partly shown) : ____
Ans. 2 to 4 µg/mL

Qu. Reported MIC, compound NC[C@@H]1O[C@H](O[C@H]2[C@@H](O)[C@H](O[C@@H]3[C@@H](O)[C@H](N)C[C@H](N)[C@H]3O[C@H]3O[C@H](CO)[C@@H](O)[C@H](O)[C@H]3N)O[C@@H]2CO)[C@H](N)[C@@H](O)[C@@H]1O [paromomycin, reference compound] : ____
Ans. 2 to 4 µg/mL
